B1: ZNF263 (parent)
chain: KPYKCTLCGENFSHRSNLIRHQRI

Variants of: B1
Assay: protein stability index of a GFP-peptide fusion (GPS, HEK-293T) (PSI 1-6); higher = more stable;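 further: lentivirally expressed fusions sorted by FACS into six bins by GFP to DsRed ratio, PSI derived from sequencing read proportions per bin multiplied by bin number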
Conditions: c terminus: a fixed tail appended
Assign class by protein stability index: not lower than 2 means met; lower than 2 means not met.

1. N11I = met
2. P2D = met
3. K4D = not met
4. F12V = met
5. L18T = not met
6. R20Q = met
7. R20E = met
8. S13C = met
9. E10C = not met
10. R23A = met
